Test system: cellular uptake of 1 in HeLa Kyoto cells
Assay: cells
Assay type: cell-based
Settings: HeLa Kyoto, HeLa; tpre 1 h with inhibitor, removal, tinc 0.5 h with 1 (10 µM); read-out: IC50, inhibition of cellular uptake of 1
Description: With COCs 1 and 2 as cell-penetrating reporters, a fully automated, fluorescent microscopy image-based high-content high-throughput (HCHT)[19] inhibitor screening assay was developed. […] Hindered reporter uptake then causes decrease of fluorescence inside of cells (Fig. 3a). Automated data analysis[19] was established to extract average fluorescence intensity per cell and, at the same time, cell viability from propidium iodide negative nuclei count (Fig. 3 and S3–S6 ^†). […]
Param label: returns true (1) when IC50 < 30 µM, returns false (0) otherwise, including exact equality.

# TODO verify IC50 < 30 µM strictly for this compound: O=C(O)CC[C@H](NC(=O)CCCCC1CCSS1(=O)=O)C(=O)O (stereo partly drawn)
false (0)

Check if IC50 falls below 30 µM for CS(=O)(=O)c1nc2ccccc2s1 .
false (0)

In the record for O=C(O)C1CS[S+]([O-])C1 (stereo not drawn) , is IC50 less than 30 µM?
false (0)

Take the compound O=C(O)CCCCC1CCSS1 (stereo not drawn) and say whether its IC50 is less than 30 µM.
false (0)

Is it true that IC50 reported for CS(=O)(=O)c1nc2ccccc2o1 is less than 30 µM?
false (0)

Is it true that IC50 reported for O=C(CN1C(=O)C2SSC1C(=O)N2CCOc1ccccc1)NCC(=O)OC[C@H]1OC(O)[C@H](O)[C@@H](O)[C@@H]1O (stereo partly drawn) is less than 30 µM?
true (1)

Criterion: IC50 strictly below 30 µM. Is it met by O=C(O)C1CSSC1 ?
false (0)

Lab log: compare recorded IC50 with 30 µM; is it strictly lower for C=CCS[S+]([O-])CC=C (stereo not drawn) [compound 25, allicin, reference compound] ?
false (0)

Hello, is IC50 of the following compound strictly smaller than 30 µM? CCN1C(=O)C2SSSSC1C(=O)N2CC(=O)O (stereo not drawn)
true (1)

IC50 under 30 µM? Item: O=C(O)CCCCC1CCS[S+]1[O-] (stereo not drawn)
false (0)

In plain terms, does O=C(O)CN1C(=O)C2SSC1C(=O)N2CCOc1ccccc1 (stereo not drawn) come in under 30 µM for IC50?
true (1)

Criterion: IC50 strictly below 30 µM. Is it met by O[C@@H]1CSSC[C@@H]1O ?
false (0)

Quick check: IC50 of O=C(CN1C(=O)C2SSC1C(=O)N2CCOc1ccccc1)NCCS(=O)(=O)O (stereo not drawn) under 30 µM?
false (0)

# TODO verify IC50 < 30 µM strictly for this compound: O=S1(=O)C[C@H](O)[C@H](O)CS1
false (0)

Please let me know if CCN1C(=O)C2SSC1C(=O)N2CC(=O)O (stereo not drawn) shows IC50 below 30 µM.
true (1)

State whether 30 µM exceeds IC50 recorded for COCCOCCOCCNC(=O)c1ccc2c(c1)SSSSS2 .
true (1)

Report whether reported IC50 is lower than 30 µM (strictly) for CCN1C(=O)C2SSC1C(=O)N2CC(=O)NCC[N+](C)(C)C (stereo not drawn)
false (0)

====

assay: Relative cell viability in HCHT screening (propidium iodide negative nuclei count); assay type: cell-based; conditions: human, HeLa; tpre 23.5 h with FBS, then tco 0.5 h co-incubation of inhibitor and 1 (10 µM); read-out: GI50, concentration causing 50% cell growth inhibition
Items are presented alongside their recorded GI50.

{"columns": ["molecule", "GI50"],
 "data": [
  ["O=C(O)CC[C@H](NC(=O)CCCCC1CCSS1(=O)=O)C(=O)O (stereo partly shown)", "944 µM"],
  ["O=S1(=O)C[C@H](O)[C@H](O)CS1", "490 µM"],
  ["[O-][S+]1CC(O)C(O)CS1 (stereo not shown)", "450 µM"],
  ["O=C(O)CNC(=O)c1ccc2c(c1)SSSSS2", "> 20 µM"],
  ["CCN1C(=O)C2SSC1C(=O)N2CC(=O)O (stereo not shown)", "> 20 µM"],
  ["CCN1C(=O)C2SSSSC1C(=O)N2CC(=O)O (stereo not shown)", "> 50 µM"]
]}

Report GI50 for O=C(CN1C(=O)C2SSC1C(=O)N2CCOc1ccccc1)NCC(=O)OC[C@H]1OC(O)[C@H](O)[C@@H](O)[C@@H]1O (stereo partly shown) please.
> 100 µM
